Molecular target: human ether-à-go-go-related gene (hERG) potassium channel (human, UniProt Q12809)
Sequence (Q12809 whole entry, looked up): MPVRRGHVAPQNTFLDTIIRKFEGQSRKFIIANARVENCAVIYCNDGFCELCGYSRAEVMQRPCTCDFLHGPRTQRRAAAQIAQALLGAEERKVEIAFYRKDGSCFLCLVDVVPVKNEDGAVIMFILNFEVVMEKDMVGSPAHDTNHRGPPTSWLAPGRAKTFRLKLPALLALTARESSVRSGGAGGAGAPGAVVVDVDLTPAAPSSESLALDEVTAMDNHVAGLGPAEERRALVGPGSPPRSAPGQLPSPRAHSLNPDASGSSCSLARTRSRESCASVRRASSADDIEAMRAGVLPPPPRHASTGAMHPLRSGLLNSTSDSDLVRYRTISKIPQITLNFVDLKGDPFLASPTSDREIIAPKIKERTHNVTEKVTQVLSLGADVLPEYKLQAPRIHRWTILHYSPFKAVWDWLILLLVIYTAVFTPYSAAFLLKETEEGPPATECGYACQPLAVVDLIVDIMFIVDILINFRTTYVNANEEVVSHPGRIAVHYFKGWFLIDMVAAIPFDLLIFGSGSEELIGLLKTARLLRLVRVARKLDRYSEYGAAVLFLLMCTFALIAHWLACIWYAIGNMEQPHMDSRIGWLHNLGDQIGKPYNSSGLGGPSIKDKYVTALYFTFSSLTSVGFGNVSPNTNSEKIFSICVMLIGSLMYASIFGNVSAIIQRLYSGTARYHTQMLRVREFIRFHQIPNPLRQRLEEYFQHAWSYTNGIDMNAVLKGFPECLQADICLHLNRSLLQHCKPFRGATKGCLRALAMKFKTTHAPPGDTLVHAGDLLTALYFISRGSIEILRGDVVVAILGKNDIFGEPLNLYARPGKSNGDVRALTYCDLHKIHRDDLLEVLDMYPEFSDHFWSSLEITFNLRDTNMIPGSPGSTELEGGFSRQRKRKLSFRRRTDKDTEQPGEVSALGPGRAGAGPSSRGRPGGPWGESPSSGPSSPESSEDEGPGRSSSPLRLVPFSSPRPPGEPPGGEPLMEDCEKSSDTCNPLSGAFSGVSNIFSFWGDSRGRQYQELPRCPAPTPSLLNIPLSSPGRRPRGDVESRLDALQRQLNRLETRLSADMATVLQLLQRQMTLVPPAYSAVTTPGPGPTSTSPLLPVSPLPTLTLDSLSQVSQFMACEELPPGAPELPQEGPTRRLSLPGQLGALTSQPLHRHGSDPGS
Test: primary screen, population patch clamp on CHO cells stably expressing hERG; higher = less effect of the substance
Source text: Briefly, Chinese hamster ovary (CHO) cells stably expressing the hERG channel were dislodged from tissue culture flasks and dispensed into PPC plates. […] Small molecule effects on hERG current density were quantified by […].
Among all 310,000 compounds or so, about 2,200 (0.71%) showed an effect of 50% or more. Effects have a minus sign here. Only a selection was taken, and strong results are over-represented in it overall.
Hi there, I'd appreciate the recorded hERG current change (%, negative = inhibition) at 1uM for every entry that follows.
The response must be a number in % with no trailing unit.

Entry `COc1ccc(C(=O)NC2CC2)cc1OC1CCN(Cc2cnn(C)c2)CC1` , system human ether-à-go-go-related gene (hERG) potassium channel (human, UniProt Q12809): what hERG current change (%, negative = inhibition) at 1uM was measured? 6.61

Repeat with Cn1cccc1C(=O)NCC(c1ccc(F)cc1)N1CCOCC1 (stereo not shown) 5.02

Repeat with COC(=O)c1[nH]c2cccc(OC)c2c1NC(=O)CCN1CC(C)CC(C)C1 (stereo not shown) -4.14

Repeat with `CCOc1ccc(-n2c(-c3ccc(Cl)cc3)c[n+]3c2SCC3)cc1.[Br-]` -60.8

Repeat with `CC(C)C[C@H](NC(=O)c1nc[nH]c1C(=O)N[C@@H](CC(C)C)C(=O)OCc1ccccc1)C(=O)OCc1ccccc1` 9.56

Repeat with `Cc1nnc(NC(=O)CSc2nnc(CC(=O)Nc3ccccc3C)n2C)s1` 17.4

Repeat with `O=C(Nc1cccc(F)c1)N1CCN(C/C=C/c2ccccc2)CC1` -19.1

Repeat with `CCc1ccc(-c2nc(CN3CCC(C(=O)NCc4ccc(F)cc4)CC3)c(C)o2)cc1` -12.4

Repeat with `Cc1cc(Cl)c(OCCCNC2CCCC2)c(Br)c1.O=C(O)C(=O)O` -6.84

Repeat with COc1ccc2cc(C3(C)NC(=O)N(CC(=O)Nc4c(C)n(C)n(-c5ccccc5)c4=O)C3=O)ccc2c1 (stereo not shown) 0.395

Repeat with `COc1cccc(Cn2c(-c3cccs3)noc2=O)c1` -8.06

Repeat with `O=C(CCN1CCN(c2ccccc2)CC1)Nc1ccc(Cl)cc1` 9.14

Repeat with `O=C(CCN1CCN(C/C=C/c2ccccc2)CC1)Nc1ccccc1` -79

Repeat with `Cc1c(CCOC(=O)c2ccccc2)sc[n+]1CC(=O)c1ccc(Br)cc1.[Br-]` -82.8

Repeat with `COc1ccc(C(=O)NCCc2cccc(Cl)c2)cc1OC1CCN(C(C)=O)CC1` -6.31

Repeat with `Clc1ccc(-c2c[n+]3c(n2-c2ccccc2)SCC3)cc1.[Cl-]` 3.68

Repeat with `CN1CCN(CCC(=O)Nc2cccc(F)c2)CC1` 13

Repeat with `CCN(CC)S(=O)(=O)c1ccc(Cl)c(C(=O)Nc2nncs2)c1` 15.1

Repeat with `CCN1C(=O)/C(=C/c2ccc(N(CC)CC)cc2OC)C(=O)NC1=S` 5.05

Repeat with `O=C(O)c1ccc(CNCc2ccc(Cl)cc2)cc1` 11.3

Repeat with `COc1ccc(NC(=O)CCN2CCN(C/C=C/c3ccccc3)CC2)cc1` -37.8

Repeat with `CCN1CCN(c2nc(-c3ccccc3Cl)nc3ccccc23)CC1.Cl` -39.1

Repeat with Cc1ccc(C(=O)COC(=O)C2C3C=CC(C3)C2C(=O)OCC(=O)c2ccc(C)c(C)c2)cc1C (stereo not shown) 11.2

Repeat with `Cc1c(CCOC(=O)c2ccc([N+](=O)[O-])cc2)sc[n+]1CC(=O)c1ccccc1.[Br-]` -6.66

Repeat with `Cc1nc2nc(SCC(=O)N3CCOCC3)nn2c(C)c1Cc1c(F)cccc1Cl` 3.11

Repeat with `C/C(=N\NC(=O)COc1c(C)cccc1C)c1cccs1` 8.57

Repeat with `Cl.O=C(CCN1CCOCC1)Nc1ccc(Cl)cc1` 8.71

Repeat with CC12CN3CC(C)(CN(C1)C3c1ccccc1)C2O (stereo not shown) 9.98
